Recorded values, source patent US20180280393A1.

# System: human T cells
# ASSAY DETAILS: ConA-induced activation and expansion of human T cells (high-throughput screen)
# Assay type: cell-based
# REPORTED CONDITIONS: human T cells activated with ConA for 7 days; N/A = ambiguous curve fits or EC50 greater than the highest concentration tested (25 μM)
MEASURED ENDPOINT: EC50 (nM)
Use nM as the unit, but write only the number.

Solved entries:
Cn1ncc(Cl)c1-c1cc(C(=O)N[C@H](CN)Cc2ccc(F)c(F)c2)oc1Cl    96
COc1ncc(-c2ccc3nccc(-c4ccnnc4)c3c2)cc1NS(=O)(=O)c1ccc(F)cc1F    0.237
CCc1cc(Nc2nccc(-c3c(-c4ccc(OC)c(C(=O)Nc5c(F)cccc5F)c4)nc4ccccn34)n2)c(OC)cc1N1CCC(N2CCN(S(C)(=O)=O)CC2)CC1    13900
C=CCN(/C=C1/C(=O)O[C@H](COC)[C@@]2(C)C1=C(O)C(=O)C1=C2[C@H](OC(C)=O)C[C@]2(C)C(=O)CC[C@@H]12)CC=C    1200
COc1ccc(C2=N[C@@H](c3ccc(Cl)cc3)[C@@H](c3ccc(Cl)cc3)N2C(=O)N2CCNC(=O)C2)c(OC(C)C)c1    1130

Now for a further molecule.
Item: CC(C)(C)c1cc(C=C(C#N)C#N)cc(Br)c1O | EC50: 9830
